- measurementNotes: Selectivity index, ratio of IC50 for rat L6 cells to IC50 for chloroquine/pyrimethamine-resistant Plasmodium falciparum K1 infected in human RBC
- Format: toxicity, cell-based
- settings: read-out: Ratio IC50
Decide using selectivity ratio: a value greater than or equal to 300 is YES, a smaller one is NO.

moleculeSmiles | discreteLabel
CN1CCN(CC(=O)N2CCN(c3ccnc4cc(Cl)ccc34)CC2)CC1 | NO
O=C(CN1CCCCC1)NCCNc1ccnc2cc(Cl)ccc12 | NO
CN1CCN(CCNc2ccnc3cc(Cl)ccc23)CC1 | YES
O=C(CN1CCCC1)NCCNc1ccnc2cc(Cl)ccc12 | YES
CCCN(CCC)CC(=O)NCCNc1ccnc2cc(Cl)ccc12 | YES
Clc1ccc2c(NCCN3CCCCCC3)ccnc2c1 | YES
Clc1ccc2c(N3CCN(CCN4CCCCCC4)CC3)ccnc2c1 | YES
O=C(CN1CCCCCC1)NCCNc1ccnc2cc(Cl)ccc12 | NO
Clc1ccc2c(NCCCN3CCCCCC3)ccnc2c1 | YES
CN1CCN(CCCNc2ccnc3cc(Cl)ccc23)CC1 | YES
CCCN(CCC)CC(=O)N1CCN(c2ccnc3cc(Cl)ccc23)CC1 | NO
CCCN(CCC)CCN1CCN(c2ccnc3cc(Cl)ccc23)CC1 | YES
CN1CCN(CC(=O)NCCNc2ccnc3cc(Cl)ccc23)CC1 | NO
Clc1ccc2c(NCCNCCN3CCCCCC3)ccnc2c1 | YES
CCCN(CCC)CCNc1ccnc2cc(Cl)ccc12 | YES
